molecular target: Voltage-dependent calcium channel gamma-2 subunit (Mus musculus) + Glutamate receptor 2 (Rattus norvegicus) (UniProt O88602+P19491); assay: modulators of GluA2-stargazin AMPA receptor complexes, primary screen, cell-based, membrane potential dye (AID 1259245); settings: HEK293 GluA2+stargazin, membrane potential dye (FDSS), glutamate EC50, at 30 µM, hits were called plate by plate, in both directions; compound-alone response (agonism)
Sequence (O88602 whole entry, looked up): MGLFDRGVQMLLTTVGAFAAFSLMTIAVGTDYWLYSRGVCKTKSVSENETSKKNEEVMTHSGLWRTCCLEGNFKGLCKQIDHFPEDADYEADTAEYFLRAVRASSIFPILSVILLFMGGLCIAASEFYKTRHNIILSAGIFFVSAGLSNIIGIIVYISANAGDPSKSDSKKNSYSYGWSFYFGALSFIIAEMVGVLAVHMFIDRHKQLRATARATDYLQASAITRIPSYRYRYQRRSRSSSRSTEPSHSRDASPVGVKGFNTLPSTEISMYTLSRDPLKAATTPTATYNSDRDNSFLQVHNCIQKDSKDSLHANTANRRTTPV
Sequence (P19491 whole entry, looked up): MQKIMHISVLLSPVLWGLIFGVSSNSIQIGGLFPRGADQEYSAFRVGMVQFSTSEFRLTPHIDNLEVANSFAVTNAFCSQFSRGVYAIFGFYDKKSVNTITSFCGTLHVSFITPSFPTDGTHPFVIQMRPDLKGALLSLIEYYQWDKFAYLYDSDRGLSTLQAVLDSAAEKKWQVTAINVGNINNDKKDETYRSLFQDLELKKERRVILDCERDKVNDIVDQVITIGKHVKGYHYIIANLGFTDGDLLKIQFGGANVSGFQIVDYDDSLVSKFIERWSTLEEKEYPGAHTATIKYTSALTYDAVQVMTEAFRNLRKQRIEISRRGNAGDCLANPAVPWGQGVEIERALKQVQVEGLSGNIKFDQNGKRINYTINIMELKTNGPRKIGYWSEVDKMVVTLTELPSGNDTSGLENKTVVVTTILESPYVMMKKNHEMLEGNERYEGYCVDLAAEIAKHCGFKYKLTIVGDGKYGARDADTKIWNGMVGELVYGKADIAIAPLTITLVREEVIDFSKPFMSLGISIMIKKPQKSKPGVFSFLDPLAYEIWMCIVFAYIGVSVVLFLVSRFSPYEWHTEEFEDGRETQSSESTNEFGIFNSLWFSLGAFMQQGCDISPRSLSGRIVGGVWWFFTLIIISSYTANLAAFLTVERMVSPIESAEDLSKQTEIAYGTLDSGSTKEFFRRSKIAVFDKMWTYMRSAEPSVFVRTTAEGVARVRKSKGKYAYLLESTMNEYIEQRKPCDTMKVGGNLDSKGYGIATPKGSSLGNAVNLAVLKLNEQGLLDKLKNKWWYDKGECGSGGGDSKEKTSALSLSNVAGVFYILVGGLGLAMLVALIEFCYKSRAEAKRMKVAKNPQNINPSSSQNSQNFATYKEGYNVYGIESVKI
Out of some 40,000 compounds screened, about 1,400 (3.5%) were called active. Only a selection was taken, and actives are over-represented in it overall.
Measured compound max-min signal accompanies every entry in the list below.
Reply: number alone, nothing else.

Sample records with compound max-min signal:
>  <Compound>
CC(C)c1ccc(NC(=O)C(=O)NCCN2CCN(c3ccc(Cl)cc3)CC2)cc1

>  <Measurement Type>
compound max-min signal

>  <Recorded Number>
0.121

$$$$
>  <Compound>
CCOC(=O)N1CCc2c(sc(NC(=O)c3ccccc3Cl)c2-c2nc3ccccc3s2)C1

>  <Measurement Type>
compound max-min signal

>  <Recorded Number>
0.11

$$$$
>  <Compound>
Cc1nc2ccccn2c1C(=O)Nc1ccc2c(c1)CC(=O)N2C

>  <Measurement Type>
compound max-min signal

>  <Recorded Number>
0.213

$$$$

Cc1nc2ccccn2c1C(=O)NCC(O)(c1ccccc1)C(F)(F)F (stereo not given) yielded compound max-min signal of 0.141

Query CCS(=O)(=O)N1CCCc2cc(NS(=O)(=O)c3cc(C)c(OC)c(C)c3)ccc21 yields compound max-min signal of 0.0675

---

biological target: Voltage-dependent calcium channel gamma-2 subunit (Mus musculus) + Glutamate receptor 2 (Rattus norvegicus) (UniProt O88602+P19491); test: modulators of GluA2-stargazin AMPA receptor complexes, primary screen, cell-based, membrane potential dye (AID 1259245); details: HEK293 GluA2+stargazin, membrane potential dye (FDSS), glutamate EC50, at 30 µM, hits were called plate by plate, in both directions
About 1,400 (3.5%) of roughly 40,000 compounds were called active. Shown is part of a subset that was picked to be rich in actives.
Measurement Type: glutamate response, % of max

>  <Compound>
O=S(=O)(Cc1ccc(Cl)cc1)c1ccc(NCc2ccccc2)nn1

>  <glutamate response, % of max>
49.2% (inactive)

$$$$
>  <Compound>
CCCNC(=O)Cn1c(=O)c2c(N3CCN(C(=O)c4ccco4)CC3)c(C)cnc2n(C)c1=O

>  <glutamate response, % of max>
48.2% (inactive)

$$$$

Please fill in: glutamate response, % of max reported for O=C(NC1CCc2ccccc21)c1nnn(-c2ccc(F)cc2)c1-c1ccncc1 (configuration not stated) = 18.1% (inactive)

Please fill in: glutamate response, % of max reported for CSc1ccccc1C(=O)NCC(C)(O)C1CC1 (configuration not stated) = 38.3% (inactive)

glutamate response, % of max reported for this compound Cc1[nH]c(=O)[nH]c(=O)c1CC(=O)N1CCN(S(C)(=O)=O)CC1 : 46.3% (inactive)

The reported glutamate response, % of max of the compound CC(C)NC(=O)Nc1ccc(CN2CCN(C)CC2)cc1 was 37% (inactive)

---

As shown below, each of these compounds has a reported glutamate response, % of max value.
target: Voltage-dependent calcium channel gamma-2 subunit (Mus musculus) + Glutamate receptor 2 (Rattus norvegicus) (UniProt O88602+P19491); assay: modulators of GluA2-stargazin AMPA receptor complexes, primary screen, cell-based, membrane potential dye (AID 1259245); conditions: HEK293 GluA2+stargazin, membrane potential dye (FDSS), glutamate EC50, at 30 µM, hits were called plate by plate, in both directions
Among all 40,000 compounds or so, about 1,400 (3.5%) were called active. This is one part of a sample in which actives are shown more often than they occur.
Write down the numeric answer in % and omit the unit.

Worked examples, 10 compounds total:
>  <Compound>
CSc1ccccc1NC(=O)C(=O)NCC(O)(c1ccco1)C1CC1 (stereo unspecified)

>  <Measurement Type>
glutamate response, % of max

>  <Recorded Number>
47.7

$$$$
>  <Compound>
CC(=O)N1CC(C(=O)Nc2cccc3nsnc23)C1

>  <Measurement Type>
glutamate response, % of max

>  <Recorded Number>
30.1

$$$$
>  <Compound>
O=C(NCc1ccc(Cl)cc1)C(=O)NCc1c(F)cccc1F

>  <Measurement Type>
glutamate response, % of max

>  <Recorded Number>
54.4

$$$$
>  <Compound>
CCN1CC(c2nc3ccccc3n2Cc2ccc(Cl)cc2)CC1=O (stereo unspecified)

>  <Measurement Type>
glutamate response, % of max

>  <Recorded Number>
45

$$$$
>  <Compound>
Cc1ccc2nc(NC(=O)c3ccno3)sc2c1

>  <Measurement Type>
glutamate response, % of max

>  <Recorded Number>
53

$$$$
>  <Compound>
CC(=O)NCCn1ncc2c(N3CCOCC3)ncnc21

>  <Measurement Type>
glutamate response, % of max

>  <Recorded Number>
32.3

$$$$
>  <Compound>
COc1cccc(NC(=O)c2ccc(=O)n(Cc3cccc(C(F)(F)F)c3)c2)c1

>  <Measurement Type>
glutamate response, % of max

>  <Recorded Number>
23.5

$$$$
>  <Compound>
c1nc(N2CCN(Cc3ccc4c(c3)OCO4)CC2)c2c3c(sc2n1)CCCC3

>  <Measurement Type>
glutamate response, % of max

>  <Recorded Number>
49

$$$$
>  <Compound>
COC(=O)N1CCC(CNS(=O)(=O)c2ccc(OC(F)(F)F)cc2)CC1

>  <Measurement Type>
glutamate response, % of max

>  <Recorded Number>
39.2

$$$$
>  <Compound>
CCN1CC(c2nc3ccccc3n2Cc2ccc(Cl)c(Cl)c2)CC1=O (stereo unspecified)

>  <Measurement Type>
glutamate response, % of max

>  <Recorded Number>
41.2

$$$$

Turning now to a further record.
For reference, reported glutamate response, % of max for CCN1CC(c2nc3ccccc3n2Cc2ccccc2F)CC1=O (stereo unspecified) stands at 31.3
